Reported values: IC50 for Acetylcholinesterase (Homo sapiens, UniProt P22303), one per item.
One number for each entry, in µM.

# compound, experimentalSystem, reportedResult
data = [
    ("C[C@H](CCC(=O)O)[C@H]1CC(=O)[C@@]2(C)C3=C(C(=O)C[C@]12C)[C@@]1(C)CC[C@H](O)C(C)(C)[C@@H]1C[C@@H]3O", "Acetylcholinesterase (Homo sapiens, UniProt P22303)", 25.9),
]

State recorded IC50 for all listed compounds.
1. C[C@H](CC[C@H](O)[C@](C)(O)CO)[C@H]1CC[C@@]2(C)C3=CC[C@H]4C(C)(C)C(=O)CC[C@]4(C)C3=CC[C@]12C
2. C[C@H](CCC(=O)O)[C@H]1CC(=O)[C@@]2(C)C3=C(C(=O)C[C@]12C)[C@@]1(C)CCC(=O)C(C)(C)[C@@H]1C[C@@H]3O

Result block:
1. 22.3
2. 24

State recorded IC50 for all listed compounds.
1. COC(=O)CC[C@@H](C)[C@H]1CC(=O)[C@@]2(C)C3=C(C(=O)[C@@H](OC(C)=O)[C@]12C)[C@@]1(C)CC[C@H](O)C(C)(C)[C@@H]1CC3=O [METHYL LUCIDENATE E2]
2. CCCCOC(=O)C(C)CC(=O)C[C@@H](C)[C@H]1CC(=O)[C@@]2(C)C3=C(C(=O)[C@@H](OC(C)=O)[C@]12C)[C@@]1(C)CC[C@H](O)C(C)(C)[C@@H]1CC3=O (stereo not given in full)

Result block:
[17.1, 9.4]
